Kindly supply the reported IC50 values for the records listed here.
- Test system: HepG-2 cells
- run.description: MTT antitumor assay, hepatoma cells
- Format: cell-based, human
- setup.conditions: Homo sapiens, HepG2, 48 h, MTT, 48 h
Answers are plain numbers, in µg/mL.

input: Lab note: record IC50 of N=C1CC(=O)Oc2nc(N3NC4=C(CCCC4)C3c3ccccc3)sc21 (stereo not drawn) tested on HepG-2 cells.
output: 9.53

I would be grateful if you could provide IC50 for each of the following entries.
1. N#Cc1c(N)sc2sc(N3NC4=C(CCCC4)C3c3ccccc3)nc12 (stereo not drawn)
2. NNC(=O)c1c(N)sc2sc(N3NC4=C(CCCC4)C3c3ccccc3)nc12 (stereo not drawn)
3. CCOC(=O)C1=C2N=C(N3NC4=C(CCCC4)C3c3ccccc3)SC2C(=S)S1 (stereo not drawn)

output:
1: 7.57; 2: 6.12; 3: 5.23

input: Lab note: record IC50 of N#Cc1c(N)oc2nc(N3NC4=C(CCCC4)C3c3ccccc3)sc12 (stereo not drawn) tested on HepG-2 cells.
output: 7.88

---

- Tested on: HFB-4 cells
- run.description: MTT cytotoxicity assay, normal human melanocytes
- Type: cell-based
- setup.conditions: Melanocyte, 48 h
reported.endpoint: IC50 (µg/mL)
Answers are plain numbers, in µg/mL.

Solved entries (count: 4):
input: Identify IC50 associated with the compound CCOC(=O)C1=C2N=C(N3NC4=C(CCCC4)C3c3ccccc3)SC2C(=S)S1 (stereo not drawn)
output: 65.7

input: Identify IC50 associated with the compound N#CCc1nn(N)c2nc(N3NC4=C(CCCC4)C3c3ccccc3)sc12 (stereo not drawn)
output: 154

input: Identify IC50 associated with the compound N=C1CC(=O)Oc2nc(N3NC4=C(CCCC4)C3c3ccccc3)sc21 (stereo not drawn)
output: 105

input: Identify IC50 associated with the compound NNC(=O)c1c(N)sc2sc(N3NC4=C(CCCC4)C3c3ccccc3)nc12 (stereo not drawn)
output: 133

I would be grateful if you could provide IC50 for each of the following entries.
1. N#Cc1c(N)oc2nc(N3NC4=C(CCCC4)C3c3ccccc3)sc12 (stereo not drawn)
2. N#Cc1c(N)sc2sc(N3NC4=C(CCCC4)C3c3ccccc3)nc12 (stereo not drawn)

output:
142
97.7

---

Kindly supply the reported MIC values for the records listed here.
- Test system: Candida albicans ATCC 10231
One number for each entry, in µg/mL.

Solved entries (count: 6):
input: Identify MIC associated with the compound Clc1ccccc1C(c1ccccc1)(c1ccccc1)n1ccnc1 [Clotrimazole, clotrimazole, reference compound]
output: 14.5

input: Identify MIC associated with the compound N#Cc1c(N)oc2nc(N3NC4=C(CCCC4)C3c3ccccc3)sc12 (stereo not shown) [Compound 4]
output: 48.9

input: Identify MIC associated with the compound N=C1CC(=O)Oc2nc(N3NC4=C(CCCC4)C3c3ccccc3)sc21 (stereo not shown) [Compound 7]
output: 58.2

input: Identify MIC associated with the compound N#Cc1c(N)sc2sc(N3NC4=C(CCCC4)C3c3ccccc3)nc12 (stereo not shown) [Compound 5]
output: 59

input: Identify MIC associated with the compound NNC(=O)c1c(N)sc2sc(N3NC4=C(CCCC4)C3c3ccccc3)nc12 (stereo not shown) [Compound 6]
output: 57.3

input: Identify MIC associated with the compound N#CCc1nn(N)c2nc(N3NC4=C(CCCC4)C3c3ccccc3)sc12 (stereo not shown) [Compound 8]
output: 56.2

Continue with the next compound.
input: Identify MIC associated with the compound CCOC(=O)C1=C2N=C(N3NC4=C(CCCC4)C3c3ccccc3)SC2C(=S)S1 (stereo not shown) [Compound 9]
output: 46.6
